# RUN DESCRIPTION: Human HepG2 cell viability assay in 384 well format
# Assay type: toxicity, cell-based
# Parameters: dose 125 nL, time 70.5 hour; concentration not given beside the values
# MEASUREMENT CONDITIONS: HepG2 cells, read-out: Inhibition
Listed below: cytotoxicity at 70.5 h values for each entry.
MEASURED METRIC: cytotoxicity at 70.5 h (%)

- COCC1c2nnn(CC3CC3)c2CCN1C(=O)c1ccnnc1 (stereo unspecified): -6.63
- COc1ccc2c(c1)OCC(Cc1cnccc1N)C2 (stereo unspecified): -3.68
- CS(=O)(=O)c1ccccc1C(=O)NCCCN1CCc2ccccc2C1: 18.5
- CN(CCOCC(F)(F)F)CC1CCN(CCO)CC1: 16.2
- Cc1cn2c(n1)CCC(NC(=O)c1cnc(C)nc1C(C)C)C2 (stereo unspecified): -9
- Cc1nocc1C(=O)N1CCCC2(CCN(c3ccsc3)C2=O)C1 (stereo unspecified): -6.39
